Hello, the source for this data is the supplement of paper PMC10567573, in case you need it.

What protein stability index was measured for each of the following?
B1: FBXO34 (parent)
chain: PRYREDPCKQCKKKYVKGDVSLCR

Variants of: B1
protocolText: protein stability index of a GFP-peptide fusion (GPS, HEK-293T) (PSI 1-6); higher = more stable;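 further: lentivirally expressed fusions sorted by FACS into six bins by GFP to DsRed ratio, PSI derived from sequencing read proportions per bin multiplied by bin number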
cond: c terminus: a fixed tail appended
Numbers only.

Some variants with recorded protein stability index:
R4N; 2.99
K9D; 2.54
C8K; 3.88
Q10S; 3.13
L22R; 3.31
C8R; 3.81

State the recorded protein stability index for every item in the following list.
1. D6C
2. G18P
3. L22D
4. C11W
5. G18L
6. Y15M

1. 2.61
2. 3.13
3. 3.01
4. 2.12
5. 2.25
6. 3.11
